Assign cytotoxicity at 10 µM to each entry below.
# protocolSummary: Toxicity liver stage against HepG2, at 10uM
# Format: cell-based
# Design: test concentration 10 uM, cell line HepG2-A16-CD81EGFP
# assayContext: human, HepG2-A16-CD81EGFP cells; read-out: INHIBITION
Provide only the numeric value, understood in %.

Req: Give the measured cytotoxicity at 10 µM of `CSCC(=O)NCc1cc(Br)ccc1OC(F)F` .
Resp: -8.22

Req: Suppose we examine the compound `CCCc1nnsc1C(=O)NCC1CCN(S(C)(=O)=O)CC1` ; what cytotoxicity at 10 µM value has been reported?
Resp: -19.7

Req: Looking for the measured cytotoxicity at 10 µM of `CC(C)c1nn(C)cc1CNCc1cccc(N(C)C)c1` , can you help?
Resp: -0.509

Req: Which cytotoxicity at 10 µM value belongs to O=C(CN1CCCCC1Cn1cncn1)NCCC1=CCCCC1 (configuration not stated) ?
Resp: -7.59

Req: Which cytotoxicity at 10 µM value belongs to `COc1ccc(C(=O)N2CC[C@@H](N3CCC(O)CC3)[C@H](O)C2)cc1C` ?
Resp: -8.1

Req: Endpoint output: cytotoxicity at 10 µM of Cc1ccc(-c2nc(CN(Cc3cccs3)C3CCS(=O)(=O)C3)cs2)o1 (configuration not stated) . Value?
Resp: 11.4

Req: Fill in: cytotoxicity at 10 µM of `Clc1cc(N2CCN(C3CCOCC3)CC2)nc2[nH]ccc12` is ___
Resp: -3.96

Req: Which measured cytotoxicity at 10 µM value corresponds to c1cnc(N2CCCC3(CCN(Cc4ccsc4)C3)C2)nc1 (configuration not stated) ?
Resp: -83.2

Req: Could you share which cytotoxicity at 10 µM value was measured for `Cc1nccc(NCc2cc3n(n2)CCCN(S(C)(=O)=O)C3)n1` ?
Resp: 2.35

Req: Give the measured cytotoxicity at 10 µM of CCCc1nc(C[S+]([O-])Cc2cn3cccc(C)c3n2)no1 (configuration not stated) .
Resp: 2.48

Req: Please report the recorded cytotoxicity at 10 µM for O=C(c1ccc2nccn2c1)N1CCCC1c1noc(C2CC2)n1 (configuration not stated) .
Resp: -4.68

Req: Sample CCN1Cc2nccn2CC(COCc2csc(C)n2)C1 (configuration not stated) — what was its cytotoxicity at 10 µM?
Resp: 3.86

###

# protocolSummary: Toxicity liver stage against HepG2, at 10uM
# Type: cell-based
# Parameters: test concentration 10 uM, cell line HepG2-A16-CD81EGFP
# assayContext: human, HepG2-A16-CD81EGFP cells; read-out: INHIBITION
Exercise: for every item that follows, state its recorded cytotoxicity at 10 µM.
Give just the numeric value; % need not be written.

Req: Which cytotoxicity at 10 µM value belongs to `Cc1nc2scc(C)n2c1CNc1ccc(C(=O)O)cc1` ?
Resp: 7.05

Req: Given `Cc1nccn1CCCn1c(=O)cnc2ccccc21` , state its recorded cytotoxicity at 10 µM.
Resp: 1.53

Req: Param item = COC(=O)C1=C(C)N=C2SCC(=O)N2C1c1cn(C)nc1C (configuration not stated) ; retrieve measured cytotoxicity at 10 µM.
Resp: 8.9

Req: Tell me the measured cytotoxicity at 10 µM of CC(C)(C)Oc1ccccc1CNC(=O)C1CCCOC1 (configuration not stated) , please.
Resp: 0.997

Req: Query (molecule): CC(NCc1c(C(C)C)nn(C)c1N(C)C)C(=O)NC1CCCC1 (configuration not stated) ; field requested: cytotoxicity at 10 µM
Resp: 0.966

Req: Fill in the blank: the reported cytotoxicity at 10 µM of `Cc1ccn(CCC(=O)NCc2ccc(C)o2)n1` is ____.
Resp: -2.96

Req: Sample `CCN(Cc1nonc1C)C(=O)c1cc(C(F)(F)F)nn1C` — what was its cytotoxicity at 10 µM?
Resp: 2.06

Req: # cytotoxicity at 10 µM lookup, item Cc1nc(C2CCCN2CC(=O)N(C)Cc2ccsc2)no1 (configuration not stated)
Resp: -8.21

Req: So what does the record say about cytotoxicity at 10 µM for CCn1nc(C)c(CCNC(=O)C2CCCN(CC(N)=O)C2)c1C (configuration not stated) ?
Resp: -11.8

Req: Recorded cytotoxicity at 10 µM for Cc1nc(N2CCCOC(Cn3cccn3)C2)c2sccc2n1 (configuration not stated) , please?
Resp: 35.5

Req: Would you mind telling me what cytotoxicity at 10 µM value was observed for `CNCc1cn(CC2CCN(Cc3cccs3)CC2)nn1` ?
Resp: -4.47

Req: Requested field: cytotoxicity at 10 µM. Item: `Cc1ccccc1C(=O)N1C[C@@H]2CCN(c3cccnc3)C[C@@H]2C1`
Resp: -76.3
